B1: glmS ribozyme (parent)
chain: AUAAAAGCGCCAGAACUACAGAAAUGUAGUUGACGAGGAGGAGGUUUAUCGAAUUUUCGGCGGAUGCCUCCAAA

Variants of: B1
assay_protocol: self-cleavage kobs at 40 uM GlcN6P; higher = faster cleavage; RNA array
particulars: with glucosamine-6-phosphate
This sample holds only a part of the variants without activity.
Some variants, each annotated with its measured self-cleavage kobs at 40 uM GlcN6P.

Solved entries (count: 5):
U55A C67U: 0.000401 s⁻¹
A6U A52C: < 1e-05 s⁻¹
G13C G63A: < 1e-05 s⁻¹
C10U U55G: < 1e-05 s⁻¹
C16A C50G C68U: 0.000143 s⁻¹

Given C11G G40A A42G C58U C67G C68A , state its recorded self-cleavage kobs at 40 uM GlcN6P. 0.00042 s⁻¹

Would you kindly share the measured self-cleavage kobs at 40 uM GlcN6P for A6C C8U A14G ? < 1e-05 s⁻¹

Entry C34G G41A has what self-cleavage kobs at 40 uM GlcN6P? < 1e-05 s⁻¹
